Cited source: patent US12091424B2

Parameter IC50: see the listing below.
Test system: mTORC1 signaling
Assay: MEF TSC1−/− cell-based assay for rapalog potency (pS6)
Parameters: species or system Mouse
Conditions: Mus musculus, MEF TSC1−/− cells; average from multiple assays
Protocol: Cell-based assay for rapalog potency determination. Rapalog potency was determined using MEF TSC1−/− cell based assay. […] MEF TSC1−/− cells were plated on Poly-D-lysine coated 384 well Griener clear bottom plates and incubated overnight at 37° C., 5% CO2. […] Cells were imaged (InCell 600) using respective fluorescence channels and the potency of mTOR inhibitors was defined by pS6 IC50 (nM). […]
Enter your answer as a number in nM; do not include the unit.

Solved entries:
molecule	measured-target	IC50 (nM)
CCOCCO[C@@H]1CC[C@@H](C[C@@H](C)[C@@H]2CC[C@H](C)/C=C(\C)[C@@H](O)[C@@H](OC)C(=O)[C@H](C)C[C@H](C)/C=C/C=C/C=C(\C)C(N3CCCS3(=O)=O)C[C@@H]3CC[C@@H](C)[C@@](O)(O3)C(=O)C(=O)N3CCCC[C@H]3C(=O)O2)C[C@H]1OC (single isomer, unassigned)	mTORC1 signaling	1.55
CO[C@@H]1C[C@H](C[C@@H](C)[C@@H]2CC[C@H](C)/C=C(\C)[C@@H](O)[C@@H](OC)C(=O)[C@H](C)C[C@H](C)/C=C/C=C/C=C(\C)C(N3CCC3=O)C[C@@H]3CC[C@@H](C)[C@@](O)(O3)C(=O)C(=O)N3CCCC[C@H]3C(=O)O2)CC[C@H]1O (single isomer, unassigned)	mTORC1 signaling	1.45

Let us move to another entry and its IC50.
Query :: Entry CO[C@@H]1C[C@H](C[C@@H](C)[C@@H]2CC[C@H](C)/C=C(\C)[C@@H](O)[C@@H](OC)C(=O)[C@H](C)C[C@H](C)/C=C/C=C/C=C(\C)C(N3CCS3(=O)=O)C[C@@H]3CC[C@@H](C)[C@@](O)(O3)C(=O)C(=O)N3CCCC[C@H]3C(=O)O2)CC[C@H]1O (single isomer, unassigned) has what IC50?
Result :: 0.17
